assay: basal HepG2 mitochondrial membrane potential changes, profiling panel, cell-based, JC-1 fluorescence, 24 h, 100 nL compound (AID 1167); settings: higher = more signal; note: test concentration not given here
The following molecules are listed with their measured z-score values.
Answer with a number only.

Exam item: Quote z-score reported for CCOC(=O)C1=CC[C@@H](c2ccc(OCc3ccccc3)c(OC)c2)N(S(=O)(=O)c2ccc(C)cc2)[C@H]1c1ccc(SC)cc1 please.
Marked response: 1.37

Exam item: Quote z-score reported for O=c1n(-c2ccccc2)c(=O)n2n1CC(COc1ccccc1)=C([C@H](O)CCc1ccccc1)[C@@H]2CO please.
Marked response: -1.2

Exam item: Quote z-score reported for COCCOC(=O)N1C(=O)[C@@]2(c3cc(C#CCC(C(=O)OC)C(=O)OC)ccc31)[C@H](C(=O)N1CCc3cc(OC)c(OC)cc3C1)[C@H]1C(=O)O[C@H](c3ccccc3)[C@H](c3ccccc3)N1[C@@H]2c1ccc(OCCO)cc1 please.
Marked response: -0.781

Exam item: Quote z-score reported for [N-]=[N+]=Nc1ccccc1[C@@H]1OC(c2ccc(OCCCO)cc2)=N[C@]1(Cc1ccccc1)C(=O)NCC(O)CO (stereo not given in full) please.
Marked response: 0.307

Exam item: Quote z-score reported for COC(=O)[C@@]1(Cc2ccc(F)cc2)[C@H]2c3cc(C(=O)N4CCCC4)n(CCc4ccc(O)c(O)c4)c3C[C@H]2CN1C(=O)c1ccccc1 please.
Marked response: 0.54
